System: HEK293
test: Cytotoxic Profiling of Annotated Libraries Using Quantitative High-Throughput Screening (AID 1296008); further: nearly all actives have a fitted effect of over 60% in size
measurement context: Five cell lines viability, CellTiter-Glo ATP luminescence, 48-72 h
Results filed as inconclusive are left out. The source made the active and inactive calls. The call rests on the fitted dose curve; in most records, active means well fitted inhibition curve with a large enough effect; inconclusive means small, poorly fitted or top-dose-only effect; inactive means flat fitted curve, though single readings scatter.
Outcome field: choose from label 1 (active), label 0 (inactive)

input: GET /call?item= Nc1ncnc2c1ncn2Cc1c(F)cccc1Cl returns the recorded outcome of this test.
output: label 0

input: What did the test return for CCOc1ccc(NS(=O)(=O)c2ccc(N)cc2)nn1 ?
output: label 0

input: Assay outcome for C=CCNc1nc(NCC=C)nc(N2CCN(C(c3ccc(F)cc3)c3ccc(F)cc3)CC2)n1 : what was it?
output: label 1

input: Dear colleague, could you share the recorded outcome for CN1CCN(N)CC1 when you have a moment?
output: label 0

input: For this compound, state the assay outcome: O=C(CCCCCCCCC#CI)Oc1ccccc1
output: label 0

input: For this compound, state the assay outcome: NC(=O)C1(N2CCCCC2)CCN(CCCN2c3ccccc3CCc3ccc(Cl)cc32)CC1
output: label 1

input: What classification did CO[C@@]1(NC(=O)CSC[C@@H](N)C(=O)O)C(=O)N2C(C(=O)O)=C(CSc3nnnn3C)CS[C@@H]21 end up with in this test?
output: label 0

input: How did this test come out for C1=CC2C3C=CC(C3)C2C1 (centres undefined) ?
output: label 0

input: Outcome logged for CCCC(=O)Nc1ccc(O)c(C(C)=O)c1 in this assay:
output: label 0

input: Which outcome was assigned to O=C1CC2(CCCC2)CC(=O)N1CCNCC1COc2ccccc2O1 (centres undefined) in this test?
output: label 0

input: For this compound, state the assay outcome: CC(C(O)c1ccccc1)N(C)CCOC(c1ccccc1)c1ccccc1 (centres undefined)
output: label 1

input: Which outcome did this test record for the compound O=C(Nc1ccc(Cl)cc1)Nc1ccc(Cl)c(Cl)c1 ?
output: label 1

input: Would you mind telling me which call this test gave O=C(O)/C=C(\CC(=O)O)C(=O)O ?
output: label 0

input: Tell me the recorded outcome of this test for COC(=O)[C@H]1[C@H]2C[C@@H]3c4[nH]c5cc(OC)ccc5c4CCN3C[C@H]2C[C@@H](OC(=O)/C=C/c2ccc(O)c(OC)c2)[C@@H]1OC .
output: label 1

input: Tell me the assay call for CCOC(=O)O[C@]1(C(=O)OCCl)CC[C@H]2[C@@H]3CCC4=CC(=O)C=C[C@]4(C)[C@H]3[C@@H](O)C[C@@]21C please.
output: label 0

input: // param item: Nc1cccc2c(N)cccc12 ; yields the recorded call
output: label 1

input: Please state the recorded outcome for this compound: CCN(CC)CC(=O)Oc1ccc(NC(C)=O)cc1
output: label 0

input: Write down the call the test reported for this compound. Item: CCN1CCCC1CN (centres undefined)
output: label 0

input: Per the records of this test, what outcome belongs to COc1cc(/C=C/C(N)=O)cc(OC)c1OC ?
output: label 0

input: Outcome? CCCCCCOC(=O)NC(=N)c1ccc(NCc2nc3cc(C(=O)N(CCC(=O)OCC)c4ccccn4)ccc3n2C)cc1
output: label 1

input: What outcome does the record of this test show for CCCCC(CC)COC(=O)c1ccccc1C(=O)O (centres undefined) ?
output: label 0

input: Please let me know the test result on file for CCCCCCCCCCCCCCCCCCNC(=O)OC1CCN(C(=O)OC[C@H](COC(=O)N(Cc2cccc[n+]2CC)C(=O)c2ccccc2OC)OC)CC1 .
output: label 1

input: Which outcome was assigned to COC(=O)CCCCC(CCSS/C(CCO)=C(\C)N(C=O)Cc1cnc(C)nc1N)SC(C)=O (centres undefined) in this test?
output: label 0

input: Per the assay record, what outcome was assigned to Cc1ccc2ccc(Cl)cc2n1 ?
output: label 0
